Origin of measurements: paper PMC7996082

# PROTOCOL_DETAILS: Pharmacokinetic study in SD male rats
# Assay type: in vivo, rat
# CONDITIONS: Sprague-Dawley, rat, plasma, oral vs intravenous, 10 mg/kg, n = 3, read-out: F (bioavailability)
MEASURED_ATTRIBUTE: bioavailability (%)

P. CCOc1ccc(-n2c(SCC(=O)N3CCN(c4ccccc4)CC3)nc3sc4c(c3c2=O)CCN(C(C)=O)C4)cc1
Q. CCOc1ccc(-n2c(SCC(=O)NCc3ccccc3)nc3sc4c(c3c2=O)CCN(C(C)=O)C4)cc1
Given the two records P and Q , choose the one whose bioavailability value is lower. When you have decided, please share the label of that item.
Q
(Q: 8%, P: 78.4%)

* * *

# PROTOCOL_DETAILS: MTT assay: HT22 cell viability with compound alone
# Assay type: cell-based, mouse
# CONDITIONS: mouse, HT22 cells; HT22 cell viability after 24 h of treatment with 5 μM compound, no Aβ
Measured viability at 24 h, 5 µM of individual entries
Field: numeric (%). Do not append units.

A selection of reference data follows.
CCCCNC(=O)CSc1nc2sc3c(c2c(=O)n1-c1ccc(OCC)cc1)CCN(C(C)=O)C3 | 79
CCOc1ccc(-n2c(SCC(=O)Nc3ccc(OC)c(OC)c3)nc3sc4c(c3c2=O)CCN(C)C4)cc1 | 106
CCCn1c(SCC(=O)Nc2ccc(OC)c(OC)c2)nc2sc3c(c2c1=O)CCN(C(C)=O)C3 | 112
CCCCN(CCCC)C(=O)CSc1nc2sc3c(c2c(=O)n1-c1ccc(OCC)cc1)CCN(C(C)=O)C3 | 107

Field request: viability at 24 h, 5 µM | item: CCOc1ccc(-n2c(SCC(=O)NCc3ccc(Cl)cc3)nc3sc4c(c3c2=O)CCN(C)C4)cc1
80

Field request: viability at 24 h, 5 µM | item: CCOc1ccc(-n2c(SCC(=O)Nc3ccc(Cl)cc3)nc3sc4c(c3c2=O)CCN(C)C4)cc1
89

Field request: viability at 24 h, 5 µM | item: CCn1c(SCC(=O)Nc2ccc(OC)c(OC)c2)nc2sc3c(c2c1=O)CCN(C(C)=O)C3
99

Field request: viability at 24 h, 5 µM | item: CCOc1ccc(-n2c(SCC(=O)N(C)Cc3ccccc3)nc3sc4c(c3c2=O)CCN(C(C)=O)C4)cc1
88

Field request: viability at 24 h, 5 µM | item: CCOc1ccc(-n2c(SCC(=O)N(C)Cc3ccccc3)nc3sc4c(c3c2=O)CCN(C)C4)cc1
95

Field request: viability at 24 h, 5 µM | item: CCOc1ccc(-n2c(SCC(=O)Nc3ccc(C)cc3)nc3sc4c(c3c2=O)CCN(C)C4)cc1
127

Field request: viability at 24 h, 5 µM | item: CCOc1ccc(-n2c(SCC(=O)NCc3ccccc3)nc3sc4c(c3c2=O)CCN(C)C4)cc1
99

Field request: viability at 24 h, 5 µM | item: CCCCN(CCCC)C(=O)CSc1nc2sc3c(c2c(=O)n1-c1ccc(OCC)cc1)CCN(C)C3
110

Field request: viability at 24 h, 5 µM | item: CCOc1ccc(-n2c(SCC(=O)N(CC)Cc3ccccc3)nc3sc4c(c3c2=O)CCN(C)C4)cc1
107

Field request: viability at 24 h, 5 µM | item: CCOc1ccc(-n2c(SCC(=O)N(CC)Cc3ccccc3)nc3sc4c(c3c2=O)CCN(C(C)=O)C4)cc1
104

Field request: viability at 24 h, 5 µM | item: COc1ccc(-n2c(SCC(=O)Nc3ccc(F)c(F)c3)nc3sc4c(c3c2=O)CCN(C(C)=O)C4)cc1
92

Field request: viability at 24 h, 5 µM | item: CCOc1ccc(-n2c(SCC(=O)N(CC)CC)nc3sc4c(c3c2=O)CCN(C(C)=O)C4)cc1
77

Field request: viability at 24 h, 5 µM | item: CCCN(CCC)C(=O)CSc1nc2sc3c(c2c(=O)n1-c1ccc(OCC)cc1)CCN(C)C3
108

Field request: viability at 24 h, 5 µM | item: CCCN(CCC)C(=O)CSc1nc2sc3c(c2c(=O)n1-c1ccc(OCC)cc1)CCN(C(C)=O)C3
99

Field request: viability at 24 h, 5 µM | item: CCOc1ccc(-n2c(SCC(=O)N3CCC(Cc4ccccc4)CC3)nc3sc4c(c3c2=O)CCN(C(C)=O)C4)cc1
94

Field request: viability at 24 h, 5 µM | item: COc1ccc(NC(=O)CSc2nc3sc4c(c3c(=O)n2CC(C)C)CCN(C(C)=O)C4)cc1OC
96

* * *

# PROTOCOL_DETAILS: Pharmacokinetic study in SD male rats
# Type: in vivo, rat
# CONDITIONS: male, Sprague-Dawley, rat, plasma, iv, 10 mg/kg, intravenous, n = 3, read-out: Terminal half-life
# Description: Each test compound at a dose of 10 mg/kg was administered intravenously or orally to male Sprague-Dawley (SD) rats. […] After vortex-shaking and centrifugation at 10,000 rpm for 10 min, 5 µL of the supernatant was analysed by LC-MS/MS [HP1100® HPLC system (Agilent, Santa Clara, CA) combined with API3200® triple-quadrupole mass spectrometer (Applied Biosystems-SCIEX, Concord, Canada)]. […]
MEASURED_ATTRIBUTE: half-life (h)

I. CCOc1ccc(-n2c(SCC(=O)N3CCN(c4ccccc4)CC3)nc3sc4c(c3c2=O)CCN(C(C)=O)C4)cc1
II. CCOc1ccc(-n2c(SCC(=O)NCc3ccccc3)nc3sc4c(c3c2=O)CCN(C(C)=O)C4)cc1
When I and II are compared, which has the higher number for half-life? When you have decided, please share the label of that item.
II
(II: 2.9 h, I: 1.33 h)

* * *

# SYSTEM_UNDER_TEST: CYP2D6 (Homo sapiens)
# Construct: purchased Invitrogen, Madison, WI, USA
# Sequence (P10635 whole entry): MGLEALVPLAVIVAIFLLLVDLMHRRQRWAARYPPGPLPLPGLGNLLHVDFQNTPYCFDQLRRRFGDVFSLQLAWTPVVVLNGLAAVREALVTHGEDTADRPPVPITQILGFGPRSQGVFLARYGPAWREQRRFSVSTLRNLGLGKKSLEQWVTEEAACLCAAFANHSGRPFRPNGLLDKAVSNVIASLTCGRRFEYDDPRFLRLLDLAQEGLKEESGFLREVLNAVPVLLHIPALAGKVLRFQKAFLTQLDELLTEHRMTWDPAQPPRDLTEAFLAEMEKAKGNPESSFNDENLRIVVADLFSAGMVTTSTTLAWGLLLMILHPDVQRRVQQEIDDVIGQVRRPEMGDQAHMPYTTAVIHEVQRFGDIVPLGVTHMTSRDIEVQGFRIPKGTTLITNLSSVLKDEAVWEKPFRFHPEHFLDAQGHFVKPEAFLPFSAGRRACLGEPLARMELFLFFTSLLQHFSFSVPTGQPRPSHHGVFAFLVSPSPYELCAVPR
# PROTOCOL_DETAILS: CYP inhibition assay (Vivid CYP450 screening kit)
# Type: in vitro ADME
# CONDITIONS: 10 μM compound
MEASURED_ATTRIBUTE: CYP450 (% remaining Activity at 10 μM) CYP2D6 (%)

CCOc1ccc(-n2c(SCC(=O)N(CC)Cc3ccccc3)nc3sc4c(c3c2=O)CCN(C)C4)cc1 | 61.4

P. CCOc1ccc(-n2c(SCC(=O)N(C)Cc3ccccc3)nc3sc4c(c3c2=O)CCN(C(C)=O)C4)cc1
Q. CCOc1ccc(-n2c(SCC(=O)Nc3ccc(OC)c(OC)c3)nc3sc4c(c3c2=O)CCN(C)C4)cc1
When P and Q are compared, which has the higher number for CYP450 (% remaining Activity at 10 μM) CYP2D6? When you have decided, please share the label of that item.
P
(P: 91.7%, Q: 57.8%)

P. CCOc1ccc(-n2c(SCC(=O)N3CCC(c4ccccc4)CC3)nc3sc4c(c3c2=O)CCN(C(C)=O)C4)cc1
Q. CCOc1ccc(-n2c(SCC(=O)Nc3ccc(Cl)cc3)nc3sc4c(c3c2=O)CCN(C(C)=O)C4)cc1
When P and Q are compared, which has the higher number for CYP450 (% remaining Activity at 10 μM) CYP2D6? When you have decided, please share the label of that item.
Q

* * *

# PROTOCOL_DETAILS: Liver microsomal stability
# Format: in vitro ADME
# CONDITIONS: human, liver microsomes, 1 µM compound, 0.5 mg/mL microsomes, 30 min, 37 °C; read-out: Human Liver Microsomal Stability (% remaining after 30 min)
MEASURED_ATTRIBUTE: remaining at 0.5 h, 1 µM (%)

A selection of reference data follows.
CCOc1ccc(-n2c(SCC(=O)N(CC)Cc3ccccc3)nc3sc4c(c3c2=O)CCN(C)C4)cc1 | 82
CCOc1ccc(-n2c(SCC(=O)Nc3ccc(C)cc3)nc3sc4c(c3c2=O)CCN(C)C4)cc1 | 49.1

P. CCOc1ccc(-n2c(SCC(=O)Nc3ccc(Cl)cc3)nc3sc4c(c3c2=O)CCN(C(C)=O)C4)cc1
Q. CCOc1ccc(-n2c(SCC(=O)NCc3ccccc3)nc3sc4c(c3c2=O)CCN(C(C)=O)C4)cc1
Given the two records P and Q , choose the one whose remaining at 0.5 h, 1 µM value is lower. When you have decided, please share the label of that item.
P

* * *

# SYSTEM_UNDER_TEST: CYP1A2 (Homo sapiens, UniProt P05177)
# Construct: purchased Invitrogen, Madison, WI, USA
# Sequence (P05177 2-516 limits assumed): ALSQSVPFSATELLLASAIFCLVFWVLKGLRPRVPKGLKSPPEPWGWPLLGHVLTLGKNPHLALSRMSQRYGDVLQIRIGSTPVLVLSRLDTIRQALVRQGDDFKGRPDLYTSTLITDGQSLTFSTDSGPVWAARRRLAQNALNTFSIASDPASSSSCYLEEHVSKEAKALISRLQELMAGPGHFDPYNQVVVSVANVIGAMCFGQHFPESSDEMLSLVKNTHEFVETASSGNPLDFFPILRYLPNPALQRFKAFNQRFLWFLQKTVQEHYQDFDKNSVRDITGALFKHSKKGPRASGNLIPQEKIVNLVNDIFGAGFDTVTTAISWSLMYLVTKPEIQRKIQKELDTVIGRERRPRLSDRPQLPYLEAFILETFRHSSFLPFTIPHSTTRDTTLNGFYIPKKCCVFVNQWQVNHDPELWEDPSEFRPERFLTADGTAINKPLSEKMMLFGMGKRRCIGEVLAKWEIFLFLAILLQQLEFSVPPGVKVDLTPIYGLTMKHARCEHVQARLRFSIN
# PROTOCOL_DETAILS: CYP inhibition assay (Vivid CYP450 screening kit)
# Assay type: in vitro ADME
# CONDITIONS: 10 μM compound
MEASURED_ATTRIBUTE: CYP450 (% remaining Activity at 10 μM) CYP1A2 (%)

CCOc1ccc(-n2c(SCC(=O)NCc3ccccc3)nc3sc4c(c3c2=O)CCN(C)C4)cc1 [Compound 49] | 95.3
CCOc1ccc(-n2c(SCC(=O)Nc3ccc(OC)c(OC)c3)nc3sc4c(c3c2=O)CCN(C(C)=O)C4)cc1 [Compound 7] | 69.0
CCOc1ccc(-n2c(SCC(=O)Nc3ccc(C)cc3)nc3sc4c(c3c2=O)CCN(C)C4)cc1 [Compound 55] | 69.2
CCCN(CCC)C(=O)CSc1nc2sc3c(c2c(=O)n1-c1ccc(OCC)cc1)CCN(C(C)=O)C3 [Compound 39] | 143.1
CCOc1ccc(-n2c(SCC(=O)NCc3ccc(Cl)cc3)nc3sc4c(c3c2=O)CCN(C(C)=O)C4)cc1 [Compound 34] | 160.6

A. CCOc1ccc(-n2c(SCC(=O)N(CC)Cc3ccccc3)nc3sc4c(c3c2=O)CCN(C(C)=O)C4)cc1 [Compound 33]
B. CCOc1ccc(-n2c(SCC(=O)N3CCN(c4ccccc4)CC3)nc3sc4c(c3c2=O)CCN(C(C)=O)C4)cc1 [Compound 44]
Given the two records A and B , choose the one whose CYP450 (% remaining Activity at 10 μM) CYP1A2 value is lower. When you have decided, please share the label of that item.
B
